Attribute: Tm shift
target: Serine/threonine-protein kinase PAK 4 (Homo sapiens) (UniProt O96013); assay: compound-induced PAK4 thermal stabilization – biophysical, human, DSF, SYPRO orange (AID 389); conditions: recombinant PAK4 DSF thermal shift, at 10 µM, protein 2 µM, buffer 10 mM HEPES, pH 7.5, NaCl 150 mM, hits give high values
Sequence (O96013 whole entry, looked up): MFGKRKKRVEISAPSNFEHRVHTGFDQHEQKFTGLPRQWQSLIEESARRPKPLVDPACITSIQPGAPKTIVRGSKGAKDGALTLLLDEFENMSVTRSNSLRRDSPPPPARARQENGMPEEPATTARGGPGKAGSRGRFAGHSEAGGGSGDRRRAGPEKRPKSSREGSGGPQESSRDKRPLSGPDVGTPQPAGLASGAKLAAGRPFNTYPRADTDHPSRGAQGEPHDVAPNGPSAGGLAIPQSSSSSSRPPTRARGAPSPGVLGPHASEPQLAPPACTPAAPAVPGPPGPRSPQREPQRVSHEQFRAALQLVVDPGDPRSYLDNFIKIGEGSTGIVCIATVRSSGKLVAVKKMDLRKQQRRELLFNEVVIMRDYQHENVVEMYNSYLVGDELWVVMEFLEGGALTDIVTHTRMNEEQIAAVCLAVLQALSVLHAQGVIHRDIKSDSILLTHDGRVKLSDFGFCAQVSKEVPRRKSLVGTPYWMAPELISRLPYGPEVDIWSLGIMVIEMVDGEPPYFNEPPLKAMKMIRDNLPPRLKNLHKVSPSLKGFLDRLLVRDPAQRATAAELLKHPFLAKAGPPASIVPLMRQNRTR
PROPERTY_LABEL: Tm shift

• NC(=O)Nc1sc(-c2ccccc2)cc1C(N)=O = 4.28 Celsius
• O=Nc1c(-c2c(O)[nH]c3ccc(I)cc23)[nH]c2ccccc12 = 3.73 Celsius
• N=C(N)SCCCn1cc(C2=C(c3c[nH]c4ccccc34)C(=O)NC2=O)c2ccccc21 = 3.43 Celsius
• CCn1cnc2c(Nc3cccc(Cl)c3)nc(N[C@@H]3CCCC[C@@H]3N)nc21 = 6.44 Celsius
• O=C1NCc2c1c1c3ccccc3[nH]c1c1[nH]c3ccccc3c21 = 3.8 Celsius
• Clc1ccc(-c2cnc3ccc(NC4CCOCC4)nn23)cc1 = 3.1 Celsius
• NCCCn1cc(C2=C(c3c[nH]c4ccccc34)C(=O)NC2=O)c2ccccc21 = 4.27 Celsius
• CC(O)(O)C1(O)C[C@@H]2O[C@@]1(C)n1c3ccccc3c3c4c(c5c6ccccc6n2c5c31)C(=O)NC4 (stereo partly drawn) = 3.9 Celsius
• OCC(O)CCO/N=C1/C(c2c(O)[nH]c3ccccc23)=Nc2ccccc21 (stereo not drawn) = 4.7 Celsius
• NS(=O)(=O)c1ccc(Nc2nc(OCC3CCCCC3)c3[nH]cnc3n2)cc1 = 3.8 Celsius
• Cc1cc(Nc2nc(-c3ccccc3)nc3ccccc23)n[nH]1 = 5.9 Celsius
• NCCNc1ncc(C(N)=O)c(Nc2cccc(C(F)(F)F)c2)n1 = 5.9 Celsius
• O=C1NC(=O)c2c1c1c3ccccc3n3c1c1c2c2ccccc2n1[C@@H]1CCC3O1 = 4.92 Celsius
• CCN(CC)CCNC(=O)c1c(C)[nH]c(/C=C2\C(=O)Nc3ccc(Cl)cc32)c1C = 6.4 Celsius
• O=c1[nH]c(O)c2c1c1c3ccccc3nc1n1cncc21 = 3.8 Celsius
• Cn1cc(/C=C2\C(=O)Nc3ccc(S(N)(=O)=O)cc32)c2ccccc21 = 3.69 Celsius
• CC(C)n1cnc2c(Nc3cccc(Cl)c3)nc(NCCO)nc21 = 3.7 Celsius
• N#CCCc1ccc2c(c1)-c1[nH]c3ccc(-n4oo4)cc3c1CC(=O)N2 = 3.68 Celsius
• CC(C)C(CO)Nc1nc(Nc2cccc(Cl)c2)c2ncn(C(C)C)c2n1 (stereo not drawn) = 4.7 Celsius
• O=C(c1ccc(Nc2nccc(-c3cc4ccccc4s3)n2)cc1)N1CCC(N2CCCC2)CC1 = 3.23 Celsius
• COc1cc(/C=C/C(=O)CC(=O)/C=C/c2ccc(O)c(OC)c2)ccc1O = 3.34 Celsius
• O=C1Cc2c([nH]c3ccc(Br)cc23)-c2ccccc2N1 = 4.62 Celsius
• Nc1nc(Nc2ccc(S(N)(=O)=O)cc2)nn1C(=S)Nc1c(F)cccc1F = 6.03 Celsius
